Target: T1, PD-1 protein (human, UniProt Q15116 25-167, limits assumed)
T1 construct: also called human PD-1
T1 sequence (Q15116 25-167 limits assumed): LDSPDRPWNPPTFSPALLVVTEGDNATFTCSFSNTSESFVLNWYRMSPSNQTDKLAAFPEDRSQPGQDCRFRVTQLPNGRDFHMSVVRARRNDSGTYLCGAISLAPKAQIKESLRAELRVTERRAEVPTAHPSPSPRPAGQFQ
Test: ELISA, PD-1 coated
Parameter: OD450 at 0.02 µg/mL (OD450)
Kindly provide the numeric value in OD450 only, without the unit symbol.

504#SS25 (Fc fusion, not shown: a dimerising Fc or GST; small tags and cut ends, VHH-FC construct from HEK293 cells) VHH: QVQLVETGGGLVQAGGSLRLSCAASGDTIFISSMAWYRQAPGKERELVASIDSDDIIYYAATVKGRFTISRDNDKPTMYLQMDTLQPEDTAVYYCRVESQDYYFDYDRDSWGQGTQVTVSS	0.03

Attention now turns to another entry.
Would you mind telling me what OD450 at 0.02 µg/mL value was observed for 504#SS10 (Fc fusion, not shown: a dimerising Fc or GST; small tags and cut ends, VHH-FC construct from HEK293 cells) VHH: EVQLVESGGGLVQPGASLRLSCTASGSIFSIYAMGWYRQAPGKQRELVAYITSGGSTTYADSVKGRFTISRDNAKNTVYLQMNSLKPEDTAVYYCNRGNYYRDYKPEFWGQGTQVTVSS ? 0.03
